Molecular target: visual cycle trans-cis isomerohydrolase (isomerase) (Bos taurus)
Construct: Bovine Retinal Pigment Epithelium (RPE) microsome membranes were the source of visual cycle trans-cis isomerohydrolase (isomerase); from tissue; host or cells: bovine retinal pigment epithelium (RPE) microsome membranes; CRALBP made in E. coli
Experiment: Isomerase reaction: inhibition of isomerase by retinylamine derivative compounds (bovine RPE microsomes, HPLC read-out)
Type: biochemical
Details: 5 min preincubation at 37° C., 10 μM all-trans-retinol, 6 μM apo-CRALBP, 30 minutes
Experimental Endpoint: IC50 (µM)
Numbers only, in µM.

Look over these answered cases.
Item CC1=C(/C=C/C(C)=C2C=C/C(=C/CN)CC/2)C(C)(C)CCC1 has what recorded IC50?
0.55

Entry to check: CC1=C(/C=C/C(C)=C/C=C/CCCN)C(C)(C)CCC1
6

Would you kindly look at the next entry?
Item CC1=C(/C=C/C(C)N)C(C)(C)CCC1 (stereo not drawn) has what recorded IC50?
80

* * *

Biological target: visual cycle trans-cis isomerohydrolase (isomerase) (Bos taurus, UniProt Q28175)
Construct: Bovine Retinal Pigment Epithelium (RPE) microsome membranes were the source of visual cycle trans-cis isomerohydrolase (isomerase); from tissue; host or cells: bovine retinal pigment epithelium (RPE) microsome membranes; CRALBP made in E. coli
Sequence (Q28175 2-533 limits assumed): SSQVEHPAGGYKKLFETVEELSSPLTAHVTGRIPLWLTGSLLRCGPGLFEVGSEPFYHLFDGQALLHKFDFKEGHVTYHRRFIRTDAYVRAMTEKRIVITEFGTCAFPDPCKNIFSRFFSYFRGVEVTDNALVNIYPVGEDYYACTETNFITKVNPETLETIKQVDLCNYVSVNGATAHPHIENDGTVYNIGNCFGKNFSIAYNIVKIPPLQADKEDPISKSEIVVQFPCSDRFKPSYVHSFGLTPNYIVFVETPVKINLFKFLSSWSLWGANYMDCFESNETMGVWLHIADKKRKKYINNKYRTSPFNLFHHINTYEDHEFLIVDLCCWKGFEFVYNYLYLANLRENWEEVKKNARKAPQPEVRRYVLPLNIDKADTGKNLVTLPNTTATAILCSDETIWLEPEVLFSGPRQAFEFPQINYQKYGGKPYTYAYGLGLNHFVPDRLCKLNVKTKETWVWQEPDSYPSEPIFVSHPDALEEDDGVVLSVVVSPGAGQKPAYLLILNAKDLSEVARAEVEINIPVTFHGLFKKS
Assay: Isomerase reaction: inhibition of isomerase by retinylamine derivative compounds (bovine RPE microsomes, HPLC read-out)
Assay type: biochemical
Settings: 5 min preincubation at 37° C., 10 μM all-trans-retinol, 6 μM apo-CRALBP, 30 minutes
Experimental Endpoint: IC50 (µM)
Numbers only, in µM.

Look over these answered cases.
Item CC1=C(/C=C/C(C)=C/C=C/CCCCCCN)C(C)(C)CCC1 has what recorded IC50?
200

Entry to check: CC(=CCCCCN)/C=C/C1=C(C)CCCC1(C)C
1.7

Entry to check: CC1=C(/C=C/C(C)=C/C=CCCCCCCN)C(C)(C)CCC1
25

Entry to check: CC1=C(/C=C/C(C)=C/C=C/CN)C(C)(C)CCC1
5.8

Entry to check: CC1=C(/C=C/C(C)=C/C=C\CCCN)C(C)(C)CCC1
0.6

Batch: IC50 for all items listed.
1. CC1=C(/C=C/C(C)=C/C=C/C(C)=C/CN)C(C)(C)CCC1
2. CC1=C(/C=C/C(C)=C/C=C/C(C)=C/CN)C(C)(C)CCC1OCc1ccccc1 (stereo not shown)
3. CC1=C(/C=C/C(C)=C2C=C/C(=C/CN)CCC/2)C(C)(C)CCC1

1: 0.7; 2: 17; 3: 3.1

Batch: IC50 for all items listed.
1. CC1=C(/C=C/C(C)=C/C=C/CCCCN)C(C)(C)CCC1
2. CC1=C(/C=C/C(C)=C/CN)C(C)(C)CCC1

14
8.4
